# test details: yeast display, Sf9 membrane polyspecificity reagent, FACS + sequencing; frameworks hold sequencing errors

sequence content | polyreactivity (PSR sort gate)
QVQLVESGGGLVQAGGSLRLTCAASGRTFRSYTMGWYRQAPGKERELVAAISGSGGRTYYADYVKGRFTISRDNAKNNVYLQMNILKPEDTADYYCNKGFTDYHYYYWGQGTQVTVSS | high polyreactivity
EVQLVESGGGLVQAGGSLRLTCAASGSIFPVYAMGWYRQAPGKERELVASISNGGTTYYADSVKGRFTISRDNAKNTVYLQMKSLKAEDTAVYYCAATGWAYGYGYGYWGQGSQVTVSS | low polyreactivity
QVQLVESGGGLVQAGGSLRLSCAASGSTFNGYAMGWYRQAPGKERELVAAISKRGGSTYYADSVKGRFTISRDNAKNTVYLQMNSLKPEDTAVYYCAARNPTKYLMDYWGKGTQVTVSS | high polyreactivity
QVQLVESGGGLVQAGGSLRLSCAASGITFTYNAMGWYRPAPGKERELVAAITWSGGSTFYADSVKGRFTISRDNAKNTVYLQMNSLKPEDTAVYYCARDTELYDRWLDYWGQGTQVTVSS | low polyreactivity
QVQLVESGGGLVQAGGSLRLSCAASGSTFSGYAMGWDRQAPGNERELVAAITSGGITNYADSVKGRFSLSRDNAKNTVYLQMNSLKPEDTAVYYCAKSVSGIGVGYDYWGQGTQVTVSS | low polyreactivity

###

# test details: yeast display, Sf9 membrane polyspecificity reagent, FACS + sequencing; frameworks hold sequencing errors

sequence content | polyreactivity (PSR sort gate)
QLQLVESCGGLFQAGGSLRLSCADSGSTFGDHAMGCYRQAPGKERELVAVITSDTSTYYADSLKWRLTISRDNAKNTVYLQMNSMKPEDTAVYYCAADWGGLWFWYEYWGQGTQVTVSS | low polyreactivity
QVQLVESGGGLVQAGGSLRLSCAASGRTYSYYAMGSYRQAPGKERELVAAITTSGGSTYYADSVKGRFTISRDNAKNTVYLQMNSLKPEDTAVYYCNALSSGVYLYDYWGQGTQVTVSS | high polyreactivity
QVQLVESGGGLVQAGGSLRLSCAASGITFSKNAMGWYRKEPGKEKELVAAISRGGSTYYADSEKGRFTISRDNAKNTVYLQMNSLKPEDTAVYYCAARSRYYYRRPQISYDYWGQGTQVTVSS | low polyreactivity
QVQHVESGGGLVQAGGSLRLSCAASGSTFYRNTKGWYRQAPGKETELVAAISRSGGSTYYADSVKGRFTISRDNAKNTVYVQMNSLKPEDTAVYYCNADYTDYQTYSATTYEYWGQGTQVTVSS | low polyreactivity
QVQLVESGGGLVQAGGSLRLSCAASGLTFYVYTMGWYRQAPGKERELVAVISSGDSTYYADSVKGRFTISRDNAKNTVYLQMNSLKPEDTAVYYCAAGTHYRIVRYGLYDYWGQGTQVTVSS | low polyreactivity
QVQLVESGGGLVQAGGSLRLSCAASGFIYARYAMGSYRQAPGKERELLAAISWSGARTYYADSVKGRFTISRDNAKNTVYLQMNSLKAEDTAVYYCAARRLSYSYDYWGQGTQVSVSS | high polyreactivity
QVQLVESGGGLVQAGGSLRLSCAASGRIFGFYALGWYRQAPGKEREFVASISVRGASTYADSVKGRFTISRDNAKNTVYLQMYSLKPEDTAVYYCNKAVANDDGLEYWGQGTQVTVSS | high polyreactivity
QVQLVESGGGLVQAGGSLRLSCAASGSIFGSNAMGWYRQAPGKERELVAVITNGGRTYYADSVKGRFTISRDNAKNSVYLQMNSLNPEDTAVYYCAASRVYGWYGSYSTYGSWGQGTQVTVSS | high polyreactivity
QVQLVESGGGLVQAGGSLRLSCAASGRTFEQYAMGWSRQAPGKERELVAAISGSGGSTFYADSVKGRFTISRDNAKNTVYLQMNSLKPEDTAVYYCNAPGDGYLYDHTYDYWGQGTQVTVSS | low polyreactivity
QVQLVESGGGLVQAGGSLRLSCAASGRTFRTNAMGWYRQAPGKERELVAAITSDGTYYADSVKGRFTISRDNAKNTVYLQMNSLKPEDTAVYYCNVDDRETRDDYWGQGTQVTVSS | low polyreactivity
QVQLVESGGGLVQAGGSLRLSCAASGRIFTRNVMGWYRQAPGKERELVAAITTNGGSTYYADSVKGRFTISRDNAKNTVYLQMNSLKPEDTAVYYCAKRTVHYTWVYYWGQGTQVTVSS | high polyreactivity
QVQLVESGGGLVQAGGSLRLSCAASGSTFARYAMGWYRQAPGKERELVASITQSSGSTYYADSVKGRFTISRDNAKSTVYLQMNSLKPEDTAVYYCAKVISYGPVPDRYDYWGQGTQVTVSS | high polyreactivity

###

# test details: yeast display, Sf9 membrane polyspecificity reagent, FACS + sequencing; frameworks hold sequencing errors

sequence content | polyreactivity (PSR sort gate)
QVQLVESGGGLVQAGGSLRLSCAASGYTFLYYAMGWYRQAPGKEREFVAAISRSGGSTYYADSVKGRFTISRDNAKNTVYLQMNSLKPEDTAVYFCAARFRYQHQRGDYWGQGTQVTVSS | high polyreactivity
QDQLVESGGGIVQEGGILRLSCAASGRIFVGYAMGWYRQAPGKERELVAAIRRYGTGTYYADSVKGRFTISRDNAKYTVYLKLNSLKTEDTAVYYCDAPELALYFPYDYWGQGTQVTVSS | low polyreactivity
KVQLVESGGGLVQPGGSLRLSCASSGQTFTTNEMGWNRQAHGKERDLLAAISRRGSRTYYADSVKGRFTISRDNAKNSVFLQMNSLKPEDTAVYYCNALTGSFKTYSFDYWGQGTQVTVSS | high polyreactivity
QVQLVESGGGLVQAGGSLRLSCASSGSTFRLYAMGWYRQAPGKERELVATISTSGGRTYYADSVKGRLTISRDNAKNTVYLQMNSLKPEDTAVYYCAAYRGTLLTAYDYWGQGTQVTVSS | low polyreactivity
QVQLVESGGGLVQAGGSLRLSCAASGSTFSKYAMGWYRQAPGKERELVAGISRRVGSTYYADSVKGRFTISRDNAKNTVYFQMNSLKPEDTAVYYCNKVRGYPWQVVGYDYWGQGTQVTVSS | high polyreactivity
QVHLVESGGGLVQAGGSLRLSCAAYGSIFRVYAMGWYRPAPGKERELVAAIDSGGSTYYADSVKGRFTISRDNAKNTVYLQMNSLKPEDTAVYYCNADRRPGGDYWGQGTQVTVSS | low polyreactivity
QVQLVESGGGLVQAGGSLRLSCAASGIIFSYYTMGWYRQEPGKEREVVAAISARGGRTYYADSVKGRFTISRDNAKNTVYLQMNSLKPEDTAVYYCAASWSTEYYWGQGTQVTVSS | high polyreactivity
QVQLVESGGGIVQAGGSLRLSCAASGRTFLQNAMGWYRQAPGKERELVATINYSGSSTYYADSVKGRFTISRDNAKKTVYLQMNSLKPEDTAVYYCNRDVPYRLVYYANYYRGQGTQVTVSS | low polyreactivity

###

# test details: yeast display, Sf9 membrane polyspecificity reagent, FACS + sequencing; frameworks hold sequencing errors

sequence content | polyreactivity (PSR sort gate)
QVQLVESGGGLVQAGGSLRLSCAASGFTFLVNAMGWYRLAPGKERELVAAISRIGASTYYADSVKVRFTISRDNAKNTVYIQMNSLKPQDTAVNYCAARPWANTYPRRRYDYWGQGTQVTVSS | high polyreactivity
QVQLQESGVGLVQAGGSLRLSCAASGSISAVGAMGCYRQAPGQEREFAASVNWGTNTNYADSVKGRFTISRDNAKNTLYLQMNSLKPEDTAVYYCAVLPDWETRHDYWGHGTQVTVSS | low polyreactivity
QVQLQESGGGLVQAGGSLRLSCAASGTITVLYKMGWFRQAPGKEREFVASINYGTSTYYADSVKGRFTVSRDSAKNTVYLQMNCLKPEDTAVYYFAAAYRWQDVYRYWGQGTQVTVSS | low polyreactivity
QVLLVESGGGLVQAGGSLRLSCAASGSIFGYKDMGWYRQAPGKERELVASITRGGGRTRYADSVKGRFTISRDNAKNTVYLQMNSLKPEDTAVYYCAADKLSYSYVRPPRNHEDYWGQGTQVTVSS | low polyreactivity
QVQLVESGGGLVQAGGSLRLSCAASGRTFRAYAMGWYRQAPGKERELVAAISRSGGRTYYADSVKGRFIISRDNAKITVYLQMNSLKPEDTAVYYCAAGSNIWGQGTQVTVSS | high polyreactivity
QVQLVESGGGLVQAGGSLRLSCAASGITFGDNAMGWYRQAPGKERELVAAITLSDVDTYADSVKGRFTISRDNAKNTVYLQMNSLKPEDTAVYYCAADYDFFSSKRFDYWGQGTQVTVSS | low polyreactivity

###

# test details: yeast display, Sf9 membrane polyspecificity reagent, FACS + sequencing; frameworks hold sequencing errors

sequence content | polyreactivity (PSR sort gate)
QVHLVESGGGLVQAGGSLRLSCAASGSIYHGNAMGWYRQAPGKERELVATISSGGSTYYADSLKVRFTISRDNAKNTVYLQMNSLKPEDTAVYYCAAERFWPYKSYYRGQGTQVTVSS | low polyreactivity
QVQLVESGGGLVQAGGSLRLSCAASGRTFYKNTMGWYRQAPGKERELVAPITRRGGTPYYADSVKGRFTISRDNAKNTVYLQMNSLQPEDTAVYYCAVLTWYFLLQYGYYQEGDYWGQGTQVTVSS | low polyreactivity
QVQLVESGGGLVQAGGSLRLSCAASGRIFVRYAMGWYRQAPGKEREFVAAINYSGGSTYADSVKGRFTISRDNAKNSVFLQMIRLKPEDTAVYYCAADYQGITSSDPYDYWGQGTQVTVSS | low polyreactivity
QVQLVESGGGLVQAGGSLRLSCAASGLTFVDYTKGWYRQAPGNERELVAAIDWSGGSTYYADSVKGRFTISRDNAKNPVYLQMNSLKPEDTAVYYCNALRRFYSMDDYWGQGTQVTVSS | low polyreactivity
QVQLVESGGGLDQAGGSLRLSCAASGSIFDSNALGWYRQAPGKERELVASITSSGGSTYYADSVKGRFTISRDKAKNTVYLQMNSLKPEDTAVYYCAADSYKTKHDAYDYCGQGTQVTVSS | high polyreactivity
QVQLVESCGGLVQAGGSLRLSCAASGFIFYYYAMGWYRQAPGKERELVAGITRGGSTYYADSVKGRFTISRDNAKNTVYLQMNSLKPEDTAVYYCASTYYLSYTSGTFGKFGYWGQGTQVTVSS | high polyreactivity
QVQLVESGGGLVQAGGSLLLSCAASGITFPKYAMGWYRQAPGKERELVAAITKSGGSTYYADSVKGRFTISRDHAKNTVYFQMNSLKPEDTAVYYYAARPRYGEYDYWGQGTQVTVSS | high polyreactivity
QVQLVESGGGLVQAGGSLRLSCAASGSTFVYNAMGWYRQAPGKEREFVAVINWSGGRTYADSVKGRFTISRDNAKNTVYLQMNSLKPEDTAVYYCNARRRTGYRPAMDYWGQGTQVTVSS | high polyreactivity
QVQLVETGGGLVQAGGSLRLSCAASGRISYDYAMGWYRPPPGKERELVAAITTGGNTYYADSVKGRFTISRDNAKNTVYLQLNRLKPEDTAVYYCSVRGPYVRYNRYNYVYWGQGTQVTVSS | low polyreactivity
QVQLVESGGGLVQEGGSLRLSCAASGFTFGSYAMGWYRQAPGTERELLAAITTDGSTYYADSVKGRFTISRDNAKNTVYLHMNSLKREDTAVYYCAAGYSYDRYGSDMDYWGQGTQVTVSS | low polyreactivity
